# Tested on: PPARg:RXRa (NR concentration 180 nM, RXRa partner concentration 90 nM)
# procedure_summary: PBM binding z-score (relative to random genomic background probes); higher = stronger binding; sequences stand for … in GC…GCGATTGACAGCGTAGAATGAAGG
parameter_measured: PBM binding z-score

Example sequences with recorded PBM binding z-score:
# sequence_input, value_observed
records = [
    ("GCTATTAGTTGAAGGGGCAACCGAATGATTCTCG", 0.924),
    ("GCTATTAGTTGAAAGGGCAACCGAATGATTCTCG", 2.9),
    ("CCTATTAGCTGACCATAAGGGCAACCGAAGCTCG", 0.333),
    ("TAGCCTAGGTCATCGGCCAGTATACCACGCGAAC", 2.62),
    ("GCATATAGGTAAGACAAGGTGAAAGTCCGATTGT", 0.917),
    ("CCTCGGAGGACAACAGGAGGTCCGAGCTGCCAGA", -0.182),
    ("GCTCGCAGGACAAGGTCAGAGCTTTGTCCGTAGA", -0.311),
    ("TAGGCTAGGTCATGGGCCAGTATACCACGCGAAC", 4.36),
    ("TCTCGGAGGATACGAAGGTCAGAGCTTTCCAGAG", 0.177),
    ("TAGCCTAGGTCATTCAGGGGCCAGTATTGAAAGC", 1.63),
]

Qu. Item under review: CCAGACAGTTGAAAGGTAACTCAGTCTGGTACGC . Reported PBM binding z-score?
Ans. 0.992

Qu. Item under review: TCTATTAATTGATTAGGGCAACCGAAACAGCGGA . Reported PBM binding z-score?
Ans. 0.157
